assay target: Rap guanine nucleotide exchange factor 3 (Homo sapiens)
assay summary: Confirmatory qHTS for agonist of cAMP-regulated guanine nucleotide exchange factor 3 (EPAC1) (AID 1645881);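 also: EPAC1 catalysed release of BODIPY-GDP from Rap1B seen as fluorescence loss; nearly all actives have a fitted effect of over 75% in size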
experimental setup: EPAC1 Rap1B BODIPY-GDP exchange fluorescence; series mostly up to 154 µM
Inconclusive results are not listed. The source made the active and inactive calls. Calls follow the shape of the dose curve; as a rule, active = well fitted activation curve with a large enough effect; inconclusive = small, poorly fitted or top-dose-only effect; inactive = no such curve, though single readings can be large or run the other way.
Pick one: active, inactive

Sample answers from the record:
>>> assigned_class("Cc1cccc(-c2nc(SCC(=O)Nc3cccc(C(F)(F)F)c3)n3[nH]c(=O)cc3n2)c1")
"inactive"
>>> assigned_class("CC(=O)c1ccc(NC(=O)CC2Nc3cccc4cccc(c34)NC2=O)cc1 (configuration not stated)")
"inactive"
>>> assigned_class("Cc1ccc(-c2cc(C(=O)Nc3ccc4c(c3)OCCO4)c3ccccc3n2)cc1")
"inactive"
>>> assigned_class("Cc1cccc(-n2nc(C)c(C(=O)Nc3cc(C)ccc3C)c2-n2cccc2)c1")
"inactive"
>>> assigned_class("COc1ccc(N2CCN(C(c3ccccc3F)c3sc4nc(-c5ccco5)nn4c3O)CC2)cc1 (configuration not stated)")
"inactive"
>>> assigned_class("CN(C)c1nc(Oc2ccc(=O)[nH]n2)nc(N2CCOCC2)n1")
"inactive"
>>> assigned_class("CCOc1cc(/C=C2\\SC(=S)N(NS(=O)(=O)c3ccccc3)C2=O)ccc1O")
"inactive"
>>> assigned_class("CCNC(=O)C1(C)CCN(C(=O)c2ccc(C(=O)OC)cc2)C1 (configuration not stated)")
"inactive"

q: Lab log entry: CCOc1ccc(NC(=O)CN(C)C(=O)c2cc3c(s2)CCC3)cc1OCC — outcome as called in the assay?
a: inactive

q: Lab log entry: COc1ccc2oc(C(=O)N(C)CCOc3ccc(Cl)cc3)c(C)c2c1 — outcome as called in the assay?
a: inactive

q: Lab log entry: COc1ccc(CNC(=O)C(=O)Nc2ccc(OC)cc2OC)cc1 — outcome as called in the assay?
a: inactive

q: Lab log entry: Cc1ccn2cc(CNC(=O)c3cccs3)nc2c1 — outcome as called in the assay?
a: inactive

q: Lab log entry: Cc1ccc2oc(=O)c3cnn(CC(=O)NCCCOC(C)C)c3c2c1 — outcome as called in the assay?
a: inactive

q: Lab log entry: COc1cc2c(cc1OC)C(c1ccccc1)N(C(=O)c1ccco1)CC2 (configuration not stated) — outcome as called in the assay?
a: inactive

###

The entries below come with measured Potency values attached.
assay summary: qHTS profiling for inhibitors of Plasmodium falciparum proliferation (AID 504749); also: potency is read from the fitted curve at half-maximal effect; nearly all actives have a fitted effect of over 60% in size
experimental setup: P. falciparum in erythrocytes, SYBR Green DNA, 72 h; parasite line B
Records with an inconclusive call do not appear. Calls of active or inactive are those of the source. The call rests on the fitted dose curve; in most records, active means well fitted inhibition curve with a large enough effect; inconclusive means small, poorly fitted or top-dose-only effect; inactive means flat fitted curve, though single readings scatter.

q: Requested field: Potency. Item: COc1ccc2cc1Oc1ccc(cc1)CC1c3c(cc4c(c3Oc3cc5c(cc3OC)CCN(C)C5C2)OCO4)CCN1C (centres undefined)
a: 10 µM (active)

q: Requested field: Potency. Item: CC(C)(C)NC[C@@H](O)COc1ccccc1C1CCCC1
a: 3.16 µM (active)

q: Requested field: Potency. Item: C=Cc1c(C)c2cc3nc(cc4[nH]c(cc5nc(cc1[nH]2)C(C)=C5CCC(=O)O)c(CCC(=O)OC)c4C)[C@@]1(C)C3=CC=C(C(=O)OC)[C@H]1C(=O)OC (tested in a mixture with another compound)
a: 5.62 µM (active)

q: Requested field: Potency. Item: COc1cc(N[C@@H](C)CCCN)c2ncccc2c1
a: 2.82 µM (active)

q: Requested field: Potency. Item: COC1C=CO[C@@]2(C)Oc3c(C)c(O)c4c(O)c(c5c(nc6cc(C)ccn65)c4c3C2=O)NC(=O)/C(C)=C\C=CC(C)C(O)[C@@H](C)C(O)C(C)[C@@H](OC(C)=O)C1C (some centres undefined)
a: 10 µM (active)
